Every entry's value here was drawn from the supplement of paper PMC10724198.

System: Saccharomyces cerevisiae;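 also: PSI is a weighted mean of sequencing reads over stability bins, variants kept only with over 10 reads, mCherry proximal and sfGFP distal, peptide attached via GGGS linker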
assay: protein stability index of tFT-peptide fusion (C-terminal peptide) (PSI (0-1 scale)); higher = more stable (slower turnover)
reported-conditions: genetic background: wild type; temperature: 30 C
# maps each entry to its protein stability index
quantity: protein stability index

>>> readout_number("MCLTPLWYPSSA")
0.709
>>> readout_number("CIRGFQVRGYFK")
0.791
>>> readout_number("REEFHGLKGRGG")
0.671
>>> readout_number("TAKGSSIMCVKI")
0.729
>>> readout_number("LRVQASALHVLQ")
0.667
>>> readout_number("WGPGGGGVSDGM")
0.768
>>> readout_number("LMGFVASGGDDM")
0.786
>>> readout_number("STSRSFFFCSFL")
0.644
>>> readout_number("PTPTTNPTHSAP")
0.695
>>> readout_number("SCCGCGFGLLFC")
0.73
>>> readout_number("LCPVGLGFFVGL")
0.666
>>> readout_number("GYLGEIHLHYVQ")
0.708
>>> readout_number("GGYVTVTSVTVV")
0.468
>>> readout_number("SERRVKKIEEQI")
0.77
>>> readout_number("YFFRLLYRLWSR")
0.676
>>> readout_number("CDGPFRLVLGGG")
0.672
>>> readout_number("PPPPPFLPPTPP")
0.622
>>> readout_number("PSPPRPSGVPVT")
0.674
>>> readout_number("PRLPYPSLFPCT")
0.678
